assay: Clearance in C57BL/6J mouse at 1 mg/kg, iv measured up to 30 hrs by LC-MS/MS analysis; assay type: ADME, organism-based; details: in vivo
measure name: clearance (mL/min/kg)

I. COc1ccc(Cn2c(=O)n(C)c3c4cc(-c5cnc6ccccc6c5)ccc4ncc32)cc1
II. COc1ccc(Cn2c(=O)n(C)c3c4cc(-c5cnc(OC)c(NS(C)(=O)=O)c5)ccc4ncc32)cc1
III. Cn1c(=O)n(-c2ccc(C(C)(C)C#N)cc2)c2c3cc(-c4cnc5ccccc5c4)ccc3ncc21
# sort list by recorded clearance, greatest to least Reply: labels, ordered per the request. III, I, II

###

test: Oral bioavailability in C57BL/6J mouse at 3 mg/kg measured up to 30 hrs by LC-MS/MS analysis; format: ADME, organism-based; details: in vivo
measure name: bioavailability (%)

P. Cn1c(=O)n(-c2ccc(C(C)(C)C#N)cc2)c2c3cc(-c4cnc5ccccc5c4)ccc3ncc21
Q. COc1ccc(Cn2c(=O)n(C)c3c4cc(-c5cnc6ccccc6c5)ccc4ncc32)cc1
R. COc1ccc(Cn2c(=O)n(C)c3c4cc(-c5cnc(OC)c(NS(C)(=O)=O)c5)ccc4ncc32)cc1
Sort the listed entries by bioavailability, smallest first. Reply: labels, ordered per the request. Q, P, R
(Q: 14.8%, P: 37.8%, R: 68.9%)

###

biological target: Serine/threonine-protein kinase mTOR (Homo sapiens); test: Inhibition of mTOR (unknown origin) assessed as reduction in p70S6K phosphorylation
pIC50: −log10 of the molar value.
measure name: pIC50

> print(dat)
                               entry.smiles  readout.value
1  COc1ccc(Cn2c(=O)n(C)c3cnc4ccc(-c5cnc(OC)c(NS(C)(=O)=O)c5)cc4c32)cc1           6.24
2  COc1ccc(Cn2c(=O)n(C)c3c4cc(-c5cnc6ccccc6c5)ccc4ncc32)cc1           6.17

###

molecular target: Phosphatidylinositol 4,5-bisphosphate 3-kinase catalytic subunit beta isoform (Homo sapiens); test: Inhibition of human PI3Kbeta using PIP2 as substrate after 1 hr
Sequence (P42338 whole entry, canonical isoform): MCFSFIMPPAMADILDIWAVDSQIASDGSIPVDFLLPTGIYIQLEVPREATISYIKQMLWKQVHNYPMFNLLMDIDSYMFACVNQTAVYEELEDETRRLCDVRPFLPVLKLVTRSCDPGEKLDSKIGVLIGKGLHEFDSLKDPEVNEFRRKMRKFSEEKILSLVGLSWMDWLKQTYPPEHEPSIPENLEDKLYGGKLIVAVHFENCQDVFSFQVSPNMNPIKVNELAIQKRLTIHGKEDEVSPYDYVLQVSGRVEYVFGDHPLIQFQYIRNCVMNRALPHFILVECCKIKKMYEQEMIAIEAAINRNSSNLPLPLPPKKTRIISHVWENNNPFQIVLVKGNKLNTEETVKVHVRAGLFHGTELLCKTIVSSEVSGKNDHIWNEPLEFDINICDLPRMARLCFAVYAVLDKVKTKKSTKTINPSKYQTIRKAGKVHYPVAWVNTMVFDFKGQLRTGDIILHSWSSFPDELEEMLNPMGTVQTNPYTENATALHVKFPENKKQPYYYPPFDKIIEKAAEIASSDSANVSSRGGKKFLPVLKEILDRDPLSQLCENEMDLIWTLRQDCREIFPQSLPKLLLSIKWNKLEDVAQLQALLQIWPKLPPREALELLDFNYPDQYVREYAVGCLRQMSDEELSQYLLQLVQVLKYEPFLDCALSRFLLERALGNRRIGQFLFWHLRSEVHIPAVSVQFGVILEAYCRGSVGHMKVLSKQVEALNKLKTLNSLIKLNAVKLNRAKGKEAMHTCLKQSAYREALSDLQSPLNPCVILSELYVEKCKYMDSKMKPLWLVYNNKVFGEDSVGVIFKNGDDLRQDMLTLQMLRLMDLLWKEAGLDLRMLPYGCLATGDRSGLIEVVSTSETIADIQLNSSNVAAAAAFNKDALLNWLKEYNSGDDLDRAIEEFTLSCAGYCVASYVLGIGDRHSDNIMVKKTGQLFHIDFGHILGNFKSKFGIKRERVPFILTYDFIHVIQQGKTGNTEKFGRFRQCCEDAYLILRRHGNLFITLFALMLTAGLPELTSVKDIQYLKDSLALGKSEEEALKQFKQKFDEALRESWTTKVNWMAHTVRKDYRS
pIC50: −log10 of the molar value.
measure name: pIC50

> print(dat)
                               entry.smiles  measure.name  readout.value
1  COc1ccc(Cn2c(=O)n(C)c3cnc4ccc(-c5cnc(OC)c(NS(C)(=O)=O)c5)cc4c32)cc1         pIC50           6.62

A. COc1ccc(Cn2c(=O)n(C)c3c4cc(-c5cnc6ccccc6c5)ccc4ncc32)cc1
B. COc1ccc(Cn2c(=O)n(C)c3c4cc(-c5cnc(OC)c(NS(C)(=O)=O)c5)ccc4ncc32)cc1
pIC50 comparison. Which is larger, A or B ? // caller expects the label of the chosen entry A

###

target: CYP2C8 (Homo sapiens, UniProt P10632); assay: Inhibition of CYP2C8 in human liver microsomes at 10 uM using testosterone/dextromethorphan as probe substrate measured after 10 mins relative to control; type: ADME
Sequence (P10632 whole entry): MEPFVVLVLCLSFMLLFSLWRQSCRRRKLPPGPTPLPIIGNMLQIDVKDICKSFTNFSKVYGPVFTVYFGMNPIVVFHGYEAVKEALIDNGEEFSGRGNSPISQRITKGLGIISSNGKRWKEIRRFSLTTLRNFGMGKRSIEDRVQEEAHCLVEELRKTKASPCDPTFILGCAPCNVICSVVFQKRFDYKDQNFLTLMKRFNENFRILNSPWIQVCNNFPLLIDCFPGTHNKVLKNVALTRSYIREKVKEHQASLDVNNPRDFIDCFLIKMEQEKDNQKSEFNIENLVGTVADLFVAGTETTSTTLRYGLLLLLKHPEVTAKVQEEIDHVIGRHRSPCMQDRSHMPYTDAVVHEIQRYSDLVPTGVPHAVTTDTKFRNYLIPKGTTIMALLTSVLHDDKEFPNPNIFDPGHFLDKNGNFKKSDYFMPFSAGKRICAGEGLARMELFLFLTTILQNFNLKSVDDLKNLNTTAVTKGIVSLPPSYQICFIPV
measure name: inhibition at 10 min, 10 µM

Can you look up the measured inhibition at 10 min, 10 µM of "COc1ccc(Cn2c(=O)n(C)c3c4cc(-c5cnc(OC)c(NS(C)(=O)=O)c5)ccc4ncc32)cc1" for me? < 10%

###

target: UniProtKB P10635; experiment: Inhibition of CYP2D6 in human liver microsomes at 10 uM using testosterone/dextromethorphan as probe substrate measured after 10 mins relative to control; format: ADME
Sequence (P10635 whole entry): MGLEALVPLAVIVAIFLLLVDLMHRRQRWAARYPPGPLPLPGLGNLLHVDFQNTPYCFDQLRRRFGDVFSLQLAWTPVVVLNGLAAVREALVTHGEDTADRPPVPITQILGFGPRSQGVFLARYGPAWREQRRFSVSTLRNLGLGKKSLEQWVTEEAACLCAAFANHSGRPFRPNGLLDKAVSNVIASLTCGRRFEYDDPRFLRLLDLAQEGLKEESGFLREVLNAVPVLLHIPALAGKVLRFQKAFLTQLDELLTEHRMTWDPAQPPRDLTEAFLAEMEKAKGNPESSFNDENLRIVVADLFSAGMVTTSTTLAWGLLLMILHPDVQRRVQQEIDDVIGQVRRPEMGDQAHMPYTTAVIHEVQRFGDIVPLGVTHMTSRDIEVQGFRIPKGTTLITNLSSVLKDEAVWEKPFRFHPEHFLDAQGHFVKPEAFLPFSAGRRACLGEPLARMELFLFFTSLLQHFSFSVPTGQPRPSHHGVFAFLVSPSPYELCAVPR
measure name: inhibition at 10 min, 10 µM

Can you look up the measured inhibition at 10 min, 10 µM of "COc1ccc(Cn2c(=O)n(C)c3c4cc(-c5cnc(OC)c(NS(C)(=O)=O)c5)ccc4ncc32)cc1" for me? < 10%

###

Target: Phosphatidylinositol 4,5-bisphosphate 3-kinase catalytic subunit delta isoform (Homo sapiens)
Sequence (O00329 whole entry): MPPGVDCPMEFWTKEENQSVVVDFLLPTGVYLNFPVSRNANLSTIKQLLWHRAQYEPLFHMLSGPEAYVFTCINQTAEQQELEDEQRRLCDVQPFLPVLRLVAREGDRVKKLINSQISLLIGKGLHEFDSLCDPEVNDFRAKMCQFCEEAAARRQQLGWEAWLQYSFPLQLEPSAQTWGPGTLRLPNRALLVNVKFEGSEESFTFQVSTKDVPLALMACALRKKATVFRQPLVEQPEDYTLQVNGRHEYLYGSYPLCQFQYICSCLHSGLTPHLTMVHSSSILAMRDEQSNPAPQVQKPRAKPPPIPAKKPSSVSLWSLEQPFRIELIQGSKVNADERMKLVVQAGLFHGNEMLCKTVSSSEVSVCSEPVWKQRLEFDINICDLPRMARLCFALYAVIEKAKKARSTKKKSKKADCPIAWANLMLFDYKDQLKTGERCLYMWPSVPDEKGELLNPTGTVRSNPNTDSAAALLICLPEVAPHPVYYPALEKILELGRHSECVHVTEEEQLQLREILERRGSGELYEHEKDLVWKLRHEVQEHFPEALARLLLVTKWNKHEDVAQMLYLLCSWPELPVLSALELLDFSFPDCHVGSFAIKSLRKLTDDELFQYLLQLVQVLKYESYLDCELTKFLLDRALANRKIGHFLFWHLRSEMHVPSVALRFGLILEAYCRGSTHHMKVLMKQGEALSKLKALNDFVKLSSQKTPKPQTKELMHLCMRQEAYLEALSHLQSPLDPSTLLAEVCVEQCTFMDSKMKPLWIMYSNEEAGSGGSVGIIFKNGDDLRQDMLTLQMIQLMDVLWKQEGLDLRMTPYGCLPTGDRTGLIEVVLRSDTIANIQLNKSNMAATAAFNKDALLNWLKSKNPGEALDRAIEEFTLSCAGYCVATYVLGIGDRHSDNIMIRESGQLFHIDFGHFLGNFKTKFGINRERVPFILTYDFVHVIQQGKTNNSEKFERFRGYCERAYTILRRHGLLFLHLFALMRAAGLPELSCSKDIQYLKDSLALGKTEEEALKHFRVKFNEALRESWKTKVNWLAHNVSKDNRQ
Test: Inhibition of human PI3Kdelta using PIP2 as substrate after 1 hr
measure name: IC50 (nM)

> print(dat)
                               entry.smiles  measure.name  readout.value
1  Cc1ccc(Cn2c(=O)n(C)c3c4cc(-c5cnc6ccccc6c5)ccc4ncc32)cc1          IC50           18.4

A. COc1ccc(Cn2c(=O)n(C)c3c4cc(-c5cnc(OC)c(C)c5)ccc4ncc32)cc1
B. COc1ccc(Cn2c(=O)n(C)c3c4cc(-c5cccnc5)ccc4ncc32)cc1
C. COc1ccc(Cn2c(=O)n(C)c3c4cc(-c5cnc(OC)c(NS(=O)(=O)C6CC6)c5)ccc4ncc32)cc1
Falling order of IC50, please. Reply: labels, ordered per the request. B, A, C
